Target: T1, SHANK3, Q9BYB0
T1 sequence (Q9BYB0 641-750, limits assumed, looked up): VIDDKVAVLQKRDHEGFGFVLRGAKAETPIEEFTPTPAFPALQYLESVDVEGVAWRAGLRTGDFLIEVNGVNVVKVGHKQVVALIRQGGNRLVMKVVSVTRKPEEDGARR
Assay: holdup assay
Parameters: key: below the threshold = too weak to quantify, mostly under pKd 3.1 to 4
Settings: plain residues with an end cap or a label only (N-terminal biotin on a linker: ttds)
MEASURED_METRIC: pKd

RPLPRKVSQL [DOCK4, Q8N1I0] :: below the threshold
SSLQSLETSV [ATP2B4, P23634] :: below the threshold
RHTTSTETAV [HPV30-E6, P36809] :: below the threshold
SGSRPSATVV [HPV73-E6, Q82005] :: below the threshold
